assay: Plasma clearance was measured in dog; assay type: ADME, organism-based, Canis lupus familiaris; details: read-out: Clp
This listing pairs molecules with measured clearance.
propertyLabel: clearance

1) Cl.N[C@@H](CC(=O)N1CCn2c(nnc2C(F)(F)F)C1)Cc1cc(F)c(F)cc1F = 6 mL/min/kg
2) CCc1nnc2n1CCN(C(=O)C[C@H](N)Cc1ccc(F)c(F)c1)C2.Cl = 13 mL/min/kg

###

assay: Maximum concentration was measured in plasma of rat upon peroral dose of 2 mpk; assay type: ADME, organism-based; set-up: dose 2 mpk, route oral; settings: po, 2 mg/kg
propertyLabel: Cmax (nM)

1) Cl.N[C@@H](CC(=O)N1CCn2c(nnc2C(F)(F)C(F)(F)F)C1)Cc1cc(F)c(F)cc1F = 160
2) Cl.N[C@@H](CC(=O)N1CCn2c(nnc2C(F)(F)F)C1)Cc1ccc(F)c(F)c1 = 140
3) Cl.N[C@@H](CC(=O)N1CCn2c(nnc2C(F)(F)C(F)(F)F)C1)Cc1cc(F)ccc1F = 2
4) Cl.N[C@@H](CC(=O)N1CCn2cnnc2C1)Cc1cc(F)c(F)cc1F = 30
5) Cl.N[C@@H](CC(=O)N1CCn2c(nnc2C(F)(F)F)C1)Cc1cc(F)ccc1F = 190
6) Cl.N[C@@H](CC(=O)N1CCn2c(nnc2C(F)(F)F)C1)Cc1cc(F)c(F)cc1F = 330
